Cited source for all entries: patent US10604524B2

Target: Full-length human MNK1 (Homo sapiens, UniProt Q9BUB5, T385D)
Sequence (Q9BUB5 1-424 isoform Q9BUB5-2 T344D): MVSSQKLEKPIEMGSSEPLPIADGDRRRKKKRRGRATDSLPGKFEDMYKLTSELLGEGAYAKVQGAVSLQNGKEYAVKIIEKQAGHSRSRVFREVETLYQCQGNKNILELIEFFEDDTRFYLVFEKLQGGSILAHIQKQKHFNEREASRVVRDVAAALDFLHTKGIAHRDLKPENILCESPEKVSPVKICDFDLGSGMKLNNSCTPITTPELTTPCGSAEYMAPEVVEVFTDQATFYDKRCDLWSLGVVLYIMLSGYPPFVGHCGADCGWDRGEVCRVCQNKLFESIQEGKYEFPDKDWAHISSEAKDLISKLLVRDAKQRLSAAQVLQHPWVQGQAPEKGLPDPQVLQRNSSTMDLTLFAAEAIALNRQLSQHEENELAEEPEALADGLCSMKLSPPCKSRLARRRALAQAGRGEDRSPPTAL
Experiment: MNK1 biochemical IC50 assay (Caliper mobility shift)
measuredProperty: log10(IC50) (log10 of the value in nM)

| smilesString | log10(IC50) |
| --- | --- |
| CC(C)Oc1cc(F)ccc1Nc1ncnc2cc[nH]c12 | 2.10 |
| Cn1ccc2ncnc(Nc3ccc(F)cc3OC3CC3)c21 | 2.70 |
| Fc1ccc2c(c1)CCN2c1ncnc2cc[nH]c12 | 1.60 |
| C[C@H](CF)Oc1cc(F)ccc1Nc1ncnc2ccn(C)c12 | 2.10 |
| Cc1ccc(Nc2ncnc3ccn(C)c23)c(OC(C)C)c1 | 3.50 |
| CC(C)Oc1c(Nc2ncnc3ccn(C)c23)ccc(F)c1F | 3.30 |
| CCCn1ccc2ncnc(Nc3ccc(F)cc3OC(C)C)c21 | 2.70 |
| Cn1ccc2ncnc(Nc3ccc(F)cc3OC3CCCC3)c21 | 2.10 |
| Cn1ccc2ncnc(Nc3ccc(F)cc3O[C@@H]3CCCOC3)c21 | 1.80 |
| CN(C)CCCNC(=O)c1cc2ncnc(N3CCc4cc(F)ccc43)c2[nH]1 | 1.10 |
